# system: R172K IDH2 (Homo sapiens, UniProt P48735, R172K)
# Construct: made in house; host or cells: Sf21 insect cells (cell pellets prepared at Evotec)
# Sequence (P48735 40-452 R172K): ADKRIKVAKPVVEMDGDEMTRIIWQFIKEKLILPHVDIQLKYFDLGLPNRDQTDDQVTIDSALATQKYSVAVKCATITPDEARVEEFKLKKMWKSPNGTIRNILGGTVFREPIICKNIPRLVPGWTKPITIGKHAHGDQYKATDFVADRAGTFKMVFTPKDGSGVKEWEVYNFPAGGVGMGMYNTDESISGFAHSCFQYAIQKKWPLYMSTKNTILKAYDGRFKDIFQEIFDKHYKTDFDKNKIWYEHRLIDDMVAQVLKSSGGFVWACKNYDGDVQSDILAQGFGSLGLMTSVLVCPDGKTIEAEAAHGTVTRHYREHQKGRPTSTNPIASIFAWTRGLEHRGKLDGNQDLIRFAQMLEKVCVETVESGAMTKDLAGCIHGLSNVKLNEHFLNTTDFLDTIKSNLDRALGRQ
# protocol.summary: Absorbance assay, variant activity in the presence of equimolar 2OG (inhibition screen)
# Type: biochemical
# protocol.conditions: 1.0 mM 2OG and 1.0 mM test compound, 0.03 μM R172K IDH2, 50 μM NADPH
endpoint: activity [%] (%-substrate conversion after 20 min incubation) (%)
Report the value in % with no unit label.

CCCC(CC(=O)O)C(=O)C(=O)O (racemic) [compound 3] = 105
O=CC(=O)O [glyoxylic acid] = 99
O=C(O)CC(Cc1ccc(F)cc1)C(=O)C(=O)O (racemic) [compound 8] = 106
O=C(O)CCC(=O)O [succinic acid] = 89
O=C(O)C(=O)C1CC=CCC1C(=O)O (mixture of isomers) [compound 27] = 104

// returns reported activity [%] (%-substrate conversion after 20 min incubation) for input O=C(O)[C@@H]1CCCN1 [L-proline] 98

Then COc1ccc(CC(CC(=O)O)C(=O)C(=O)O)cc1 (racemic) [compound 9] ? 111

Then COC(=O)CCC(=O)C(=O)OC [dimethyl 2-oxoglutaric acid] ? 100

Then O=C(O)CC(=O)CC(=O)O [3-oxoglutaric acid] ? 100

Then O=C(O)C(=O)CC(O)C(=O)O (racemic) [DL-4-hydroxy-2-oxoglutaric acid] ? 98
